- Tested on: EKVX
- TEST_PROTOCOL: NCI 60 cell panel SRB screen
- Type: cell-based, human
- CONDITION_SUMMARY: single dose 10 μM
Below: a set of entries, each annotated with reported percent cell growth promotion.
PROPERTY_LABEL: percent cell growth promotion (%)

INSERT INTO assay_data (compound, property_label, numeric_value) VALUES
  ('COc1cccc(NCc2nnc(Nc3ccc(Cl)cc3)c3ccccc23)c1 [Compound 16d]', 'percent cell growth promotion', -0.28),
  ('Clc1ccc(Nc2nnc(CNc3ccccc3)c3ccccc23)cc1 [Compound 16a]', 'percent cell growth promotion', 16.86),
  ('O=C(Nc1ccc(Cl)cc1)Nc1ccc(Oc2nnc(Cl)c3ccccc23)cc1 [Compound 13b]', 'percent cell growth promotion', 62.48),
  ('O=C(Nc1ccccc1)Nc1ccc(Oc2nnc(Cl)c3ccccc23)cc1 [Compound 13a]', 'percent cell growth promotion', 29.96),
  ('Clc1ccc(Nc2nnc(COc3ccccc3)c3ccccc23)cc1 [Compound 17a]', 'percent cell growth promotion', 6.53);

---

Below: a set of entries, each annotated with reported IC (TGI).
- Test system: NCI/ADR-RES
- TEST_PROTOCOL: NCI 60 cell panel SRB screen
- Assay type: cell-based
- CONDITION_SUMMARY: Homo sapiens, 5 log dose
PROPERTY_LABEL: IC (TGI) (µM)

INSERT INTO results (molecule, property_label, unit, result_qualifier, numeric_value) VALUES
  ('Cc1nnc(Nc2ccc(NC(=O)Nc3ccc(Cl)cc3)cc2)c2ccccc12', 'IC (TGI)', 'µM', '=', 14.9),
  ('O=C(Nc1ccc(Cl)cc1)Nc1ccc(Nc2nncc3ccccc23)cc1', 'IC (TGI)', 'µM', '=', 26.3),
  ('Clc1ccc(Nc2nnc(CNc3ccccc3)c3ccccc23)cc1 [Compound 16a]', 'IC (TGI)', 'µM', '=', 17),
  ('O=C(Nc1ccc(Cl)cc1)Nc1ccc(Oc2nncc3ccccc23)cc1', 'IC (TGI)', 'µM', '>', 100),
  ('O=C(Nc1ccccc1)Nc1ccc(Oc2nnc(Cl)c3ccccc23)cc1 [Compound 13a]', 'IC (TGI)', 'µM', '=', 6.39),
  ('COc1cccc(NCc2nnc(Nc3ccc(Cl)cc3)c3ccccc23)c1 [Compound 16d]', 'IC (TGI)', 'µM', '>', 25),
  ('Clc1ccc(Nc2nnc(COc3ccccc3)c3ccccc23)cc1 [Compound 17a]', 'IC (TGI)', 'µM', '=', 16.6);

---

- Tested on: HCT-116
- TEST_PROTOCOL: In vitro cytotoxic activity, SRB assay
- Type: cell-based
- CONDITION_SUMMARY: Homo sapiens; HCT-116, 48h
Hi! Could you tag entries with IC50 below 40 µM as yes, and those at or above as no? Much appreciated.

INSERT INTO measurements (molecule, system_under_test, class_assignment) VALUES
  ('Cc1cccc(NCc2nnc(Nc3ccc(Cl)cc3)c3ccccc23)c1 [Compound 16c]', 'HCT-116', 'no'),
  ('Fc1ccccc1N1CCN(c2nncc3ccccc23)CC1 [Compound 8c]', 'HCT-116', 'no'),
  ('Cc1nnc(Oc2ccc(NC(=O)Nc3ccc(Cl)c(C(F)(F)F)c3)cc2)c2ccccc12 [Compound 7f]', 'HCT-116', 'no'),
  ('O=C(Nc1ccccc1)Nc1ccc(Nc2nnc(Cl)c3ccccc23)cc1 [Compound 12a]', 'HCT-116', 'no'),
  ('O=C(Nc1ccc(Nc2nncc3ccccc23)cc1)Nc1ccc(Cl)c(C(F)(F)F)c1 [Compound 6c]', 'HCT-116', 'yes'),
  ('Cc1nnc(N2CCN(C(=O)c3ccco3)CC2)c2ccccc12 [Compound 8j]', 'HCT-116', 'no'),
  ('O=C(Nc1ccc(Cl)cc1)Nc1ccc(Nc2nnc(Cl)c3ccccc23)cc1 [Compound 12b]', 'HCT-116', 'no'),
  ('O=C(Nc1ccc(Oc2nncc3ccccc23)cc1)Nc1ccc(Cl)c(C(F)(F)F)c1 [Compound 7c]', 'HCT-116', 'yes'),
  ('Clc1ccc(Nc2nnc(CNc3cccc(Cl)c3)c3ccccc23)cc1 [Compound 16b]', 'HCT-116', 'yes'),
  ('O=C(Nc1ccc(Nc2nncc3ccccc23)cc1)c1ccccc1 [Compound 5a]', 'HCT-116', 'no'),
  ('Cc1cccc(OCc2nnc(Nc3ccc(Cl)cc3)c3ccccc23)c1 [Compound 17b]', 'HCT-116', 'yes'),
  ('O=C(Nc1ccc(Nc2nnc(Cl)c3ccccc23)cc1)Nc1ccc(Cl)c(C(F)(F)F)c1 [Compound 12c]', 'HCT-116', 'no'),
  ('c1ccc(N2CCN(c3nncc4ccccc34)CC2)cc1 [Compound 8b, 1–(4-Phenylpiperazin-1-yl)phthalazine]', 'HCT-116', 'no'),
  ('Cc1nnc(Oc2ccc(NC(=O)Nc3ccccc3)cc2)c2ccccc12 [Compound 7d]', 'HCT-116', 'yes'),
  ('O=C(c1ccco1)N1CCN(c2nncc3ccccc23)CC1 [Compound 8e]', 'HCT-116', 'no'),
  ('O=C(Nc1ccccc1)Nc1ccc(Nc2nncc3ccccc23)cc1 [Compound 6a]', 'HCT-116', 'no');

---

- System: HCC-2998
- TEST_PROTOCOL: NCI 60 cell panel SRB screen
- Format: cell-based
- CONDITION_SUMMARY: Homo sapiens; HCC-2998, 5 log dose, 48 h
Below: a set of entries, each annotated with reported LC50 (50% lethal concentration).
PROPERTY_LABEL: LC50 (50% lethal concentration) (µM)

INSERT INTO assay_data (molecule, property_label, unit, result_qualifier, numeric_value) VALUES
  ('O=C(Nc1ccc(Cl)cc1)Nc1ccc(Nc2nncc3ccccc23)cc1', 'LC50 (50% lethal concentration)', 'µM', '>', 100),
  ('COc1cccc(NCc2nnc(Nc3ccc(Cl)cc3)c3ccccc23)c1 [Compound 16d]', 'LC50 (50% lethal concentration)', 'µM', '=', 22.5),
  ('O=C(Nc1ccc(Cl)cc1)Nc1ccc(Oc2nncc3ccccc23)cc1', 'LC50 (50% lethal concentration)', 'µM', '=', 6.57),
  ('Clc1ccc(Nc2nnc(CNc3ccccc3)c3ccccc23)cc1 [Compound 16a]', 'LC50 (50% lethal concentration)', 'µM', '>', 25),
  ('Cc1nnc(Nc2ccc(NC(=O)Nc3ccc(Cl)cc3)cc2)c2ccccc12', 'LC50 (50% lethal concentration)', 'µM', '=', 27.8),
  ('Clc1ccc(Nc2nnc(COc3ccccc3)c3ccccc23)cc1 [Compound 17a]', 'LC50 (50% lethal concentration)', 'µM', '=', 18.3),
  ('O=C(Nc1ccccc1)Nc1ccc(Oc2nnc(Cl)c3ccccc23)cc1 [Compound 13a]', 'LC50 (50% lethal concentration)', 'µM', '>', 25);

---

- Tested on: MCF-7
- TEST_PROTOCOL: In vitro cytotoxic activity, SRB assay
- Type: cell-based
- CONDITION_SUMMARY: Homo sapiens, MCF7; MCF-7, 48h
pIC50: −log10 of the molar value.
PROPERTY_LABEL: pIC50

INSERT INTO results (compound, result_qualifier, numeric_value) VALUES
  ('O=C(Nc1ccccc1)Nc1ccc(Nc2nncc3ccccc23)cc1 [Compound 6a]', '=', 4.17),
  ('O=C(Nc1ccc(Oc2nncc3ccccc23)cc1)Nc1ccc(Cl)c(C(F)(F)F)c1 [Compound 7c]', '=', 5.60),
  ('COc1cccc2c1C(=O)c1c(O)c3c(c(O)c1C2=O)C[C@@](O)(C(=O)CO)C[C@@H]3O[C@H]1C[C@H](N)[C@H](O)[C@H](C)O1 [Dox, doxorubicin, reference compound]', '=', 6.05),
  ('Cc1cccc(NCc2nnc(Nc3ccc(Cl)cc3)c3ccccc23)c1 [Compound 16c]', '<', 3.00);

---

Entries with their measured GI50, system A498:
PROPERTY_LABEL: GI50 (µM)

INSERT INTO measurements (compound, numeric_value) VALUES
  ('O=C(Nc1ccc(Cl)cc1)Nc1ccc(Nc2nncc3ccccc23)cc1', 3.79),
  ('O=C(Nc1ccc(Cl)cc1)Nc1ccc(Oc2nncc3ccccc23)cc1', 1.5),
  ('O=C(Nc1ccccc1)Nc1ccc(Oc2nnc(Cl)c3ccccc23)cc1 [Compound 13a]', 3.45),
  ('Clc1ccc(Nc2nnc(CNc3ccccc3)c3ccccc23)cc1 [Compound 16a]', 1.45),
  ('Cc1nnc(Nc2ccc(NC(=O)Nc3ccc(Cl)cc3)cc2)c2ccccc12', 3.21),
  ('Clc1ccc(Nc2nnc(COc3ccccc3)c3ccccc23)cc1 [Compound 17a]', 0.68),
  ('COc1cccc(NCc2nnc(Nc3ccc(Cl)cc3)c3ccccc23)c1 [Compound 16d]', 1.27);

---

Below: a set of entries, each annotated with reported IC (TGI).
- System: MDA-MB-435
- TEST_PROTOCOL: NCI 60 cell panel SRB screen
- Format: cell-based
- CONDITION_SUMMARY: Homo sapiens, MDA-MB-435, read-out: TGI
PROPERTY_LABEL: IC (TGI)

INSERT INTO results (compound, result) VALUES
  ('Clc1ccc(Nc2nnc(CNc3ccccc3)c3ccccc23)cc1 [Compound 16a]', '7.88 µM'),
  ('Clc1ccc(Nc2nnc(COc3ccccc3)c3ccccc23)cc1 [Compound 17a]', '5.31 µM'),
  ('COc1cccc(NCc2nnc(Nc3ccc(Cl)cc3)c3ccccc23)c1 [Compound 16d]', '4.38 µM'),
  ('O=C(Nc1ccccc1)Nc1ccc(Oc2nnc(Cl)c3ccccc23)cc1 [Compound 13a]', '> 25 µM'),
  ('Cc1nnc(Nc2ccc(NC(=O)Nc3ccc(Cl)cc3)cc2)c2ccccc12 [Compound 6e]', '3.43 µM'),
  ('O=C(Nc1ccc(Cl)cc1)Nc1ccc(Oc2nncc3ccccc23)cc1 [Compound 7b]', '1.07 µM'),
  ('O=C(Nc1ccc(Cl)cc1)Nc1ccc(Nc2nncc3ccccc23)cc1 [Compound 6b]', '9.42 µM');

From: paper PMC6691788
